Entries and their measured pKd follow.
Target: T1, human ActRIIA (human, UniProt P27037 20-135, limits assumed)
T1 construct: antigen in MSD-SET; also called ACVR2A; ActR2A
T1 sequence (P27037 20-135 limits assumed): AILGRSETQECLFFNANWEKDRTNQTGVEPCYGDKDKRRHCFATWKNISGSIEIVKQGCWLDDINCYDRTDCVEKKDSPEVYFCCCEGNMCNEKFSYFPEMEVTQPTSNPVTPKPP
Assay: MSD-SET
Please express pKd as -log10 of the molar concentration.

Here is how some binders turned out for pKd.
binder	pKd
Antibody Wurschdsalat (antibody, V domains shown, full-length IgG) VH: QVQLVQSGAEVKKPGASVKVSCKASGYTFTSSYINWVRQAPGQGLEWMGTINAVSGSTSYAQKFQGRVTMTRDESISTAYMELSRLRSDDTAVYYCARGGWFDYWGQGTLVTVSS VL: QSALTQPASVSGSPGQSITISCTGTSSDVGSYNYVNWYQQHPGKAPKLMIYGVSKRESGVSNRFSGSKSGNTASLTISGLQAEDEADYYCGTFAGGKYYGVFGGGTKLTVL	10.66
Antibody Ochsamaulsalat (antibody, V domains shown, full-length IgG) VH: QVQLVQSGAEVKKPGASVKVSCKASGYTFTSSYINWVRQAPGQGLEWMGTINAVSGSTSYAQKFQGRVTMTRDTSISTAYMELSRLRSDDTAVYYCARGGWFDYWGQGTLVTVSS VL: QSALTQPASVSGSPGQSITISCTGTSSDVGSRNYVNWYQQHPGKAPKLMIYGVSKRESGVSNRFSGSKSGNTASLTISGLQAEDEADYYCGTFAGGDYYGVFGGGTKLTVL	10.63

Write down pKd measured for item Antibody Duuranad (antibody, V domains shown, full-length IgG) VH: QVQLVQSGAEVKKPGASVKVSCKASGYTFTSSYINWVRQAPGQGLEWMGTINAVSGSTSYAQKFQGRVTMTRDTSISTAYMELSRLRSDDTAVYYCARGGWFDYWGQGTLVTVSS VL: QSALTQPASVSGSPGQSITISCTGTSSDVGSFNYVNWYQQHPGKAPKLMIRGVSKRESGVSNRFSGSKSGNTASLTISGLQAEDEADYYCGTFAGGAYYGVFGGGTKLTVL
10.67
